# Experiment summary: Test of gastroprotection and preliminary bioavailability on animals (oral administration)
# Assay setup: rat, in vivo, fasted male Sprague-Dawley rats, 40 mg/kg of BZ
Readout: Cmax (ng/mL)
Answer with a number only, understood to be in ng/mL.

# lookup: Cmax of COCCCOc1ccnc(C[S+]([O-])c2nc3ccccc3[nH]2)c1C (stereo not shown) [BZ]
2.54

* * *

# Experiment summary: Test of gastroprotection and preliminary bioavailability on animals (oral administration)
# Assay setup: rat, in vivo, fasted male Sprague-Dawley rats, 40 mg/kg of BZ
Readout: AUC

// lookup AUC for COCCCOc1ccnc(C[S+]([O-])c2nc3ccccc3[nH]2)c1C (stereo not shown) [BZ]
< 5 ng·h/mL

* * *

# Experiment summary: Test of gastroprotection and preliminary bioavailability on animals (oral administration)
# Assay setup: rat, in vivo, fasted male Sprague-Dawley rats, 40 mg/kg of BZ
Readout: Tmax (min)
Give just the number in min; leave the unit off.

Data request, read-out Tmax, for COCCCOc1ccnc(C[S+]([O-])c2nc3ccccc3[nH]2)c1C (stereo not shown) [BZ]
48

The measurements presented in this section are drawn from patent US20210161877A1.
